Target: Hepatocyte nuclear factor 6 (Homo sapiens)
Test summary: ATG_HNF6_CIS: Attagene CIS-FACTORIAL HepG2 Assay for human Hepatocyte Nuclear Factor 6 (HNF6) (AID 2282952)
Run parameters: HepG2 Attagene cis-factorial HNF6 reporter transcription; actives raise or lower the signal
Description: ATG_CIS is a cell-based, multiplexed-readout assay that uses HepG2, a human liver cell line, with measurements taken at 24 hours after chemical dosing in a 24-well plate.ATG_HNF6_CIS is one of 52 assay component(s) measured or calculated from the ATG_CIS assay. […] This assay endpoint, ATG_HNF6_CIS, was analyzed with bidirectional fitting relative to DMSO as the negative control and baseline of activity. […]
Active and inactive are the calls of the source. Rule for the calls: active = hit-call score of the fitted dose curve at least 0.9, where 1 is the maximum; inactive = score below 0.9.
Outcome codes: active, inactive

• CC(C)Oc1ccccc1O = inactive
• CCCCCCCCCCCCCCCC(=O)OC[C@H](O)[C@H]1OC(=O)C(O)=C1O = inactive
• CCCC(=O)C(C)=O = inactive
• CC(C)=CCO = inactive
• O=C(Cl)c1cccc(C(=O)Cl)c1 = inactive
• c1ccc2c(c1)c1cccc3ccc4cccc2c4c31 = inactive
• S=C(S)NCCNC(=S)S = inactive
• CC1=CC(=O)NS(=O)(=O)O1 = inactive
• O=[N+]([O-])c1cc(C(F)(F)F)ccc1Cl = inactive
• N#Cc1ccccc1 = inactive
• CCc1c(C)cc(N)c(CC)c1N = inactive
• C=C(C)C(=O)OCCOC(=O)CC(C)=O = inactive
• COC(=O)c1ccc(C)cc1 = inactive
• BrC1CCC(Br)C(Br)CCC(Br)C(Br)CCC1Br (stereo not drawn) = active
• CCCCC(CC)COC(=O)/C=C\C(=O)OCC(CC)CCCC (stereo not drawn) = active
• CCCCCCCCC=O = inactive
• CC(=O)C(C)=O = inactive
• C=C(C)C(=O)NCCCN(C)C = inactive

---

Target: Nuclear receptor subfamily 1 group I member 3 (Homo sapiens) (UniProt Q14994)
Sequence (Q14994 whole entry, looked up): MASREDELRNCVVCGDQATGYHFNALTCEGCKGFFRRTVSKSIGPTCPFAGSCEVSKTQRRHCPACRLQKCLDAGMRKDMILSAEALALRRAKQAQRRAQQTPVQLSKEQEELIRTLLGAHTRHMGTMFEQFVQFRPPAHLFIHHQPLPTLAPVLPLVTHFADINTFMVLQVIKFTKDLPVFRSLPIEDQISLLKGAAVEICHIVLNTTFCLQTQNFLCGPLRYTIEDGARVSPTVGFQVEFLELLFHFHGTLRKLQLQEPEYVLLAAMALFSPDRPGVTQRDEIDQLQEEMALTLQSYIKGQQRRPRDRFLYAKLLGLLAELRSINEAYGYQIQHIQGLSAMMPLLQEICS
Test summary: ATG_CAR_TRANS: Attagene TRANS-FACTORIAL HepG2 Assay for human Constitutive Androstane Receptor (CAR) (AID 2282969);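 note: activators raise reporter mRNA above DMSO so AC50 marks induction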
Run parameters: HepG2 Attagene TRANS-FACTORIAL CAR reporter
Results filed as inconclusive are left out. Calls of active or inactive are those of the source. Rule for the calls: active = hit-call score of the fitted dose curve at least 0.9, where 1 is the maximum; inconclusive = response in the unintended direction; inactive = score below 0.9.
Outcome codes: y for active, n for inactive

• CC(C)CCCCCCCOC(=O)c1ccc(C(=O)OCCCCCCCC(C)C)c(C(=O)OCCCCCCCC(C)C)c1 = n
• O=Nc1ccc(Nc2ccccc2)cc1 = y
• CCCC(C)C=O (centres undefined) = n
• CCCCCCCCCCCCSC = n
• CC(=O)Nc1ccccc1O = n
• CC1(C)[C@H]2CC[C@]1(C)[C@H](O)C2 = n
• CC(C)(CO)[N+](=O)[O-] = n
• CCCCCOC(=O)CCC = n
• C=COCCOCCOCCOC=C = n
• CN(C)CCOCCN(C)C = n
• Clc1sc(Cl)c(Cl)c1Cl = n
• O=C(O)COCCN1CCN(C(c2ccccc2)c2ccc(Cl)cc2)CC1 (centres undefined) = n
• Nc1cc([N+](=O)[O-])ccc1O = n
• O=C(O)c1cccc(C(F)(F)F)c1 = n
• CC1=CC(=O)NS(=O)(=O)O1 = n
• CCCCCCCCCCCCCCCC(=O)O = n
• ClCCCl = n
• Clc1cccc(Cl)n1 = n
• CC(C)=CCC[C@](C)(O)[C@@H]1CC=C(C)CC1 = n
• CC(=O)OCC=Cc1ccccc1 = n
• O=C[C@@H](O)[C@H](O)[C@H](O)CO = n
• CC(=O)OCc1ccc2c(c1)OCO2 = n
• CCc1ccc(C=O)cc1 = n
• CCCC(=O)C(C)=O = n

---

Read-out: Vascular cell adhesion molecule 1 (VCAM1), VCAM1 (gene 7412)
Test summary: BSK_hDFCGF_VCAM1: BioMAP Diversity Plus: hDFCGF Assay for Vascular cell adhesion molecule 1 (VCAM1) Biomarker Activity (AID 2283065)
Run parameters: primary human foreskin fibroblasts; actives raise or lower the signal
Calls of active or inactive are those of the source. Rule for the calls: active = hit-call score of the fitted dose curve at least 0.9, where 1 is the maximum; inactive = score below 0.9.
Outcome codes: label 1 = active, label 0 = inactive

• Cc1ccc(Nc2ccc(O)c3c2C(=O)c2ccccc2C3=O)cc1 = label 0
• O=C(O)C[C@H](O)C[C@H](O)/C=C/c1c(C2CC2)nc2ccccc2c1-c1ccc(F)cc1 = label 0
• N#Cc1ccc(CC(=NNC(=O)Nc2ccc(OC(F)(F)F)cc2)c2cccc(C(F)(F)F)c2)cc1 = label 0
• CC(C)c1ccc(C(C)C)cc1 = label 0
• O=C(O)c1cn(-c2ccc(F)cc2)c2cc(N3CCNCC3)c(F)cc2c1=O = label 0
• Cc1ccc(O)c(C(C)(C)C)c1 = label 1
• O=[N+]([O-])c1cc(C(F)(F)F)ccc1Cl = label 0
• CCn1c2ccccc2c2cc(N)ccc21 = label 1
• CCCCC/C=C/C=C/C=O = label 1
• CCC(=O)OCc1ccccc1 = label 0
• NCCNCCN = label 0
• C#C[C@]1(O)CC[C@H]2[C@@H]3CCC4=Cc5oncc5C[C@]4(C)[C@H]3CC[C@@]21C = label 1
• C=C[Si](OCC)(OCC)OCC = label 0
• CC1COc2ccccc2N1C(=O)C(Cl)Cl (centres undefined) = label 1

---

Target: Myc proto-oncogene protein (Homo sapiens)
Test summary: ATG_Myc_CIS: Attagene CIS-FACTORIAL HepG2 Assay for human Myelocytomatosis (Myc) Proto-Oncogene Transcription Factor (AID 2282990)
Run parameters: HepG2, Attagene cis-reporter transcription factor activity; actives raise or lower the signal
Calls of active or inactive are those of the source. The calls were made as follows: active = hit-call score of the fitted dose curve at least 0.9, where 1 is the maximum; inactive = score below 0.9.
Outcome codes: active, inactive

- Cc1ccc(C=O)cc1: inactive
- CC(C)OP(=O)(CP(=O)(OC(C)C)OC(C)C)OC(C)C: inactive
- CCc1ccc(C=O)cc1: inactive
- CCCCNC(=O)NS(=O)(=O)c1ccc(N)cc1: inactive
- C=CCOc1nc(OCC=C)nc(OCC=C)n1: inactive
- CC(C)c1cccc(O)c1: inactive
- OCCOCCOCCOCCO: inactive
- O=C1NC(=O)c2ccccc21: inactive
- CC(=O)C=CC1=C(C)CCCC1(C)C: inactive
- CCCCCCCCCCCCN(CCCCCCCCCCCC)CCCCCCCCCCCC: inactive
- CCCCC(CC)COCCC#N (stereo not given): inactive
- ClCCCl: inactive
- CC(=O)/C=C/C1=C(C)CCCC1(C)C: inactive
- C[Si](O[Si](C)(C)C)O[Si](C)(C)C: inactive
- O=C1CCCCCCCCCCCCCCO1: inactive
- Fc1c(F)c(F)c(Br)c(F)c1F: inactive
- C=C(C)[C@@H]1CCC2=CC(=O)C[C@@H](C)[C@]2(C)C1: inactive
- Cc1cc(C2(c3cc(C)c(O)cc3C)OS(=O)(=O)c3ccccc32)c(C)cc1O: inactive
- O=Cc1ccc(F)cc1: inactive
- C=C(C)C(=O)O: inactive
- CCCCCCCCCCCCCC(=O)O: inactive
- Nc1cc([N+](=O)[O-])ccc1O: inactive
- O=P(c1ccccc1)(c1ccccc1)c1ccccc1: inactive
- NNc1nc(-c2ccc(N)cc2)cs1: inactive
- COc1ccc(O)cc1: inactive
- C=CC(=O)OCC(O)COc1ccccc1 (stereo not given): inactive
- Clc1ccc2c(c1)C(N1CCNCC1)=Nc1ccccc1O2: inactive
- C=C(C)C(=O)Nc1ccc(Cl)c(Cl)c1: inactive
- CCCCC[Si](OCC)(OCC)OCC: inactive
- Nc1ccc(S(N)(=O)=O)cc1: inactive
- CC(C=O)Cc1ccc(C(C)C)cc1 (stereo not given): inactive
- CCCCCCCCCCCCCOS(=O)(=O)O: inactive
- C[C@H]1C[C@@H]2[C@H]([C@@H](O)C[C@@]3(C)[C@H]2CC[C@]3(O)C(=O)CO)[C@@]2(C)C=CC(=O)C=C12: inactive
- NC(N)=NC(=O)c1nc(Cl)c(N)nc1N: inactive
- CC1COc2ccccc2N1C(=O)C(Cl)Cl (stereo not given): inactive
- CC(C)(C)c1n[nH]c(=S)n(N)c1=O: inactive
- O=C(O)c1snc(Cl)c1Cl: inactive
- C=C(C)[C@@H]1CC[C@@H](C)C[C@@H]1O: inactive
- O=C(O)CN(CCN(CC(=O)O)CC(=O)O)CCN(CC(=O)O)CC(=O)O: inactive
- CC[C@]12CCCN3CCc4c(n(c5ccccc45)[C@@](O)(C(=O)OC)C1)[C@@H]32: inactive
- CCC(=O)OCCC(C)CCC=C(C)C (stereo not given): inactive
- NCCNCCN: inactive
- CC1=CC(=O)NS(=O)(=O)O1: inactive
- CSc1nc(NC2CC2)nc(NC(C)(C)C)n1: inactive
- c1ccc2sc(SN(C3CCCCC3)C3CCCCC3)nc2c1: active
- CC(=O)[C@H]1CC[C@H]2[C@@H]3CC=C4C[C@@H](O)CC[C@]4(C)[C@H]3CC[C@]12C: inactive
- COc1cc(C(C)(C)C)c(O)c(C(C)(C)C)c1: inactive
- CCCCCNCCCCC: inactive
- CN1Cc2c(N)cccc2C(c2ccccc2)C1 (stereo not given): inactive
- CC1(CO)CN(c2ccccc2)NC1=O (stereo not given): inactive

Provenance of the data: PubChem BioAssay (EPA / NIEHS)
